Please provide measured Human P2X4 HEK Cells (FLIPR Assay) avg Efficacy for the entries that follow.
target: human P2X4 (Homo sapiens, UniProt Q99571); construct: expressed in transfected cells; test: Human P2X4 HEK Cell FLIPR Assay; assay type: cell-based; conditions: HEK293 stably expressing human P2X4; agonist Bz-ATP 3 μM (EC80)
Numbers only, in %.

For orientation, consider the following solved cases.
CC(=O)N(c1cc(F)cc(Cl)c1)c1cc(NC(=O)Cc2ccccc2Cl)ccn1 [Example 136]    94
CC(=O)N(c1cc(NC(=O)Cc2ccc(F)cc2Cl)ccn1)c1cc(F)ccc1Cl [Example 112]    96
CCCC(=O)N(c1ccc(F)cc1)c1cc(NC(=O)Cc2ccc(F)cc2Cl)ccn1 [Example 141]    99

Parameters: items (list). Returns: Human P2X4 HEK Cells (FLIPR Assay) avg Efficacy for each item.
1. CC(=O)N(c1ccc(F)cc1)c1cc(NC(=O)Cc2c(C)cccc2C)ccn1 [Example 34]
2. CC(=O)N(c1ccc(C)c(Cl)c1)c1cc(NC(=O)Cc2ccccc2Cl)ccn1 [Example 180]
3. CC(=O)N(c1ccc(F)cc1)c1cc(NC(=O)Cc2c(Cl)cccc2Cl)cnn1 [Example 193]

1: 97; 2: 101; 3: 93

---

Give measured IC50 for each item. Keep answers brief.
Molecular target: human P2X4 (Homo sapiens)
Construct: expressed in transfected cells
Sequence (Q99571 1-388): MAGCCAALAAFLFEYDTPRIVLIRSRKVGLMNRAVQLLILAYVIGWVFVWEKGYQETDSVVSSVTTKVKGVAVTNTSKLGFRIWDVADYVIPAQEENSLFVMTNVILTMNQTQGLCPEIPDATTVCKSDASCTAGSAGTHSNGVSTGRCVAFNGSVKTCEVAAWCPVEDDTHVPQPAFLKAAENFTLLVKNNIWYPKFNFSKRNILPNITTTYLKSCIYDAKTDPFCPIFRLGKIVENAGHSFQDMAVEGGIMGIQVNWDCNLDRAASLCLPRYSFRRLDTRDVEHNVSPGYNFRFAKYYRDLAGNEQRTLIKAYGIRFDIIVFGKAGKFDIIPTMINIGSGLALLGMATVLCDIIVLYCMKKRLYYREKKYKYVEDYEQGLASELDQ
Assay: Human P2X4 HEK Cell FLIPR Assay
Assay type: cell-based
Settings: HEK293 stably expressing human P2X4; agonist Bz-ATP 3 μM (EC80); read-out: Human P2X4 HEK Cells (FLIPR Assay) avg IC50
State the result as a value with its unit after it.

Illustrative cases are given below, each with its answer.
CC(=O)N(c1cccc(F)c1)c1cc(NC(=O)Cc2ccc(F)cc2Cl)ccn1 [Example 55]    611 nM
CC(=O)N(c1ccc(C)cc1)c1cc(NC(=O)Cc2ccc(F)cc2Cl)ccn1 [Example 44]    607 nM
CC(=O)N(c1ccc(F)cc1)c1cc(NC(=O)Cc2c(F)cc(F)cc2Cl)ccn1 [Example 41]    589 nM

Kindly give each listed record's IC50.
1. CC(=O)N(c1ccc(Cl)c(F)c1)c1cc(NC(=O)Cc2c(Cl)cccc2Cl)ccn1 [Example 61]
2. CCCC(=O)N(c1ccc(F)cc1)c1cc(NC(=O)Cc2ccc(F)cc2Cl)ccn1 [Example 141]

1: 604 nM; 2: 891 nM

Would you be so kind as to report IC50 for each listed record?
1. CC(=O)N(c1cc(F)c(C)c(F)c1)c1cc(NC(=O)Cc2ccccc2Cl)ccn1 [Example 92]
2. CC(=O)N(c1cc(NC(=O)Cc2c(Cl)cccc2Cl)ccn1)c1ccc(F)cc1F [Example 129]
3. CC(=O)N(c1cc(F)cc(Cl)c1)c1cc(NC(=O)Cc2ccc(F)cc2Cl)ccn1 [Example 137]
4. CC(=O)N(c1ccc(F)c(F)c1)c1cc(NC(=O)Cc2c(Cl)cccc2Cl)cnn1 [Example 200]

568 nM
197 nM
290 nM
465 nM

---

Molecular target: rat P2X4 (Rattus norvegicus, UniProt P51577)
Sequence (P51577 1-388): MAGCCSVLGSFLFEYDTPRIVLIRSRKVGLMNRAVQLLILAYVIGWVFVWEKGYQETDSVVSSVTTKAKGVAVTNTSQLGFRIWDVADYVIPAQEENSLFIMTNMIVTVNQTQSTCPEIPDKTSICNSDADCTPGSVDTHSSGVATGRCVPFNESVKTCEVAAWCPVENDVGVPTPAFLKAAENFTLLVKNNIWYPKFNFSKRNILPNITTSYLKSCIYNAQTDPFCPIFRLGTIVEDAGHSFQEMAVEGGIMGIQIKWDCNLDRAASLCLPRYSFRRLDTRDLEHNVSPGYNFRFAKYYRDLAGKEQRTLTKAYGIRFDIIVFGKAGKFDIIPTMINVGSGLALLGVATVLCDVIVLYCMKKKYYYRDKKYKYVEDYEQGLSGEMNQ
Assay: FLIPR Method for Rat P2X4 1321N1 Astrocytoma Cells
Conditions: 1321N1 stably expressing rat P2X4; agonist MgATP 5 μM (EC80)
I'd appreciate it if you could supply IC50 values for the items below.
Numbers only, in nM.

Solved cases (5 shown):
CC(=O)N(c1cc(NC(=O)Cc2ccc(F)cc2Cl)ccn1)c1cc(F)ccc1Cl    408
CC(=O)N(c1cccc(C(F)F)c1)c1cc(NC(=O)Cc2cccc(F)c2Cl)ccn1    855
CC(=O)N(c1cc(F)cc(F)c1)c1cc(NC(=O)Cc2c(C)cccc2C)ccn1    229
CC(=O)N(c1ccc(F)cc1)c1cc(NC(=O)Cc2c(F)cccc2Cl)ccn1    194
CC(=O)N(c1cccc(Cl)c1)c1cc(NC(=O)Cc2cccc(F)c2Cl)ccn1    325

Please give IC50, item by item, for the list that follows.
1. CC(=O)N(c1cc(F)cc(F)c1)c1cc(NC(=O)Cc2cccc(C)c2C)ccn1
2. CC(=O)N(c1cc(NC(=O)Cc2c(Cl)cccc2Cl)ccn1)c1cc(F)ccc1Cl
3. CC(=O)N(c1cccc(F)c1)c1cc(NC(=O)Cc2c(Cl)cccc2Cl)ccn1

1. 143
2. 181
3. 190

Required: IC50, one value per compound below.
1. CC(=O)N(c1cc(NC(=O)Cc2c(F)cccc2Cl)ccn1)c1ccc(F)cc1F
2. CC(=O)N(c1ccc(F)cc1)c1cc(NC(=O)Cc2ccccc2Cl)ccn1
3. CC(=O)N(c1ccc(F)c(F)c1)c1cc(NC(=O)Cc2ccccc2OC(F)(F)F)ccn1
4. CC(=O)N(c1ccc(F)cc1)c1cc(NC(=O)Cc2ccccc2OC(F)(F)F)ccn1

[1520, 290, 667, 1360]

Take each entry in turn and give its IC50.
1. CC(=O)N(c1ccc(F)c(F)c1)c1cc(NC(=O)Cc2cccc(C)c2C)ccn1
2. CC(=O)N(c1cc(F)cc(F)c1)c1cc(NC(=O)Cc2c(Cl)cc(F)cc2Cl)ccn1
3. CC(=O)N(c1ccc(F)c(F)c1)c1cc(NC(=O)Cc2ccccc2Cl)ccn1
4. CC(=O)N(c1ccc(F)cc1)c1cc(NC(=O)Cc2cccc(C)c2C)ccn1
5. CC(=O)N(c1ccc(F)cc1)c1cc(NC(=O)Cc2cccc(F)c2Cl)ccn1
6. CC(=O)N(c1cccc(Cl)c1)c1cc(NC(=O)Cc2c(F)cccc2Cl)ccn1
7. CC(=O)N(c1ccc(F)c(F)c1)c1cc(NC(=O)Cc2c(Cl)cc(F)cc2Cl)ccn1
8. CC(=O)N(c1ccc(F)c(F)c1)c1cc(NC(=O)Cc2c(C)cc(C)cc2Cl)ccn1

368
110
96.7
92.5
358
264
67.1
122

---

Biological target: rat P2X4 (Rattus norvegicus, UniProt P51577)
Test: FLIPR Method for Rat P2X4 1321N1 Astrocytoma Cells
Details: 1321N1 stably expressing rat P2X4; agonist MgATP 5 μM (EC80)
Description: Compounds were tested on a 1321N1 cell line stably expressing rat P2X4. Cells were cultured on collagen-I-coated 384-well plates at a density of 10,000 cells/well and incubated overnight at 37° C., 5% CO2. P2X4 function was assessed by measuring intracellular calcium fluxes caused by Magnesium-ATP (MgATP) using the calcium-chelating dye Fluo8-AM (Molecular Devices) with the Fluorescent Imaging Plate Reader Tetra (FLIPR^Tetra; Molecular Devices CA). […]
measured property: pIC50
Give bare numbers, as −log10 of the molar value.

CC(=O)N(c1cccc(Cl)c1)c1cc(NC(=O)Cc2ccccc2Cl)ccn1 [Example 131]    6.58
CC(=O)N(c1cc(F)cc(F)c1)c1cc(NC(=O)Cc2ccccc2Cl)ccn1 [Example 86]    6.41
CC(=O)N(c1ccc(F)c(F)c1)c1cc(NC(=O)Cc2c(C)cc(Cl)cc2Cl)ccn1 [Example 64]    6.30
CC(=O)N(c1ccc(F)c(F)c1)c1cc(NC(=O)Cc2cccc(F)c2Cl)ccn1 [Example 71]    6.78

We next turn to a different compound, shown below.
Please state recorded pIC50 (tested on rat P2X4 (Rattus norvegicus, UniProt P51577)) of CC(=O)N(c1cc(F)cc(F)c1)c1cc(NC(=O)Cc2cccc(F)c2Cl)ccn1 [Example 88]
6.35
